# protocol.notes: protein stability index of a GFP-peptide fusion (yeast GPS) (PSI 1-4); higher = more stable; sorted into four equal gates, so the index is relative within each strain
# experimental.setup: san1∆
experimental.endpoint: protein stability index
# respond with the number and nothing more

In: Can you share its protein stability index? I mean this sequence: KSIQDIVGLATLIVNTD [SRP21]
Out: 2.93

In: Using the record for VEYLTRYVAGVQQRYTQ [PRE6] , report its protein stability index.
Out: 1.65

In: Give the measured protein stability index of QMEDMEESINEFKSIEI [SMC4] .
Out: 3.27

In: I have this sequence here, KDQRATTPYMTKYERAR [RPO26] , and I need its recorded protein stability index.
Out: 2.44

In: // protein stability index lookup, key: APMDFAIVVGWRAIIKA [FAS1]
Out: 2.57

In: # input sequence: AGILRGYDIFLNVVLDD [SMX2] ; wanted: its protein stability index
Out: 2.51

In: Could you tell me which protein stability index is on file for LKFLYLLDAYSHIESDS [MED1] ?
Out: 2.8

In: Fill blank: measured protein stability index of the sequence MTDMQIQWYKSLLEKDI [ISW2] is ____.
Out: 1.74

In: What does the data say about its protein stability index? Entry: NIPKPLNSYHIKNGRIY [RGR1]
Out: 1.97

In: Dear colleague, I am looking for the recorded protein stability index of the following sequence: SNTNDNISIITLELESF [RGR1]
Out: 2.25

In: What does the record list as protein stability index for DGSKMLKRADYTAVDTA [RPN14] ?
Out: 3.53

In: Which protein stability index reading was recorded for the sequence LYVVGLFDTYHASKAIG [RRP6] ?
Out: 1.88

In: Item under review: KKKDPVNQDKANNASQI [SNF12] . Reported protein stability index?
Out: 3.19

In: What does the record list as protein stability index for ENDTNMNETLNLKVELK [SMC4] ?
Out: 3.09

In: Suppose we examine the sequence ESSKALADSLDRCVDPE [DIS3] ; what protein stability index value has been reported?
Out: 2.29

In: Fill blank: measured protein stability index of the sequence PSEDVAAPKKTRKAVRP [RPL6B] is ____.
Out: 2.93

In: I would be grateful if you could share the reported protein stability index for LDKDRKALIQRKGGKLE [RPL26A] .
Out: 3.12

In: State the recorded protein stability index for this entry: YCHEKELTIIKNPRVTK [CSN9]
Out: 2.14

In: Using the record for QVLVTTNQDGLKFVKVR [RPB2] , report its protein stability index.
Out: 1.69

In: Which protein stability index value belongs to NDDALDLDLDLFDPDDF [MED4] ?
Out: 2.81

In: Which measured protein stability index value corresponds to SMFSGLDSTGFDSTAFN [MED2] ?
Out: 3.19

In: Reported protein stability index for STVAKFLARVIKEKFDE [IRR1] : what is it?
Out: 3.36

In: What value of protein stability index has been reported for the following sequence? GTYIQERNPTQRPQRRY [RPS10A]
Out: 3.07
